Reported T/C values are given for each entry in this list.
Test system: P388 leukemia ip, CD2F1 mice, survival T/C
Test: NCI In Vivo Anticancer Drug Screen. Data for tumor model P388 Leukemia (intraperitoneal) in CD2F1 (CDF1) mice
Conditions: endpoint: median survival time; dose: 60.0 mg/kg/injection; schedule: Q01DX005 (ip); vehicle: Klucel (hydroxypropylcellulose) (HPC); higher = longer survival
Procedure: The antitumor activity of compounds was measured in mice bearing transplantable tumors. Survival or tumor size were measured and the results are expressed as the measurement made in the treated group (T) divided by the measurement made in the vehicle treated control group (C). The tumor model used in this assay is P388 Leukemia (intraperitoneal) in CD2F1 (CDF1) mice
Inconclusive results and toxic doses are left out.

{"COMPOUND": "O=C(Cc1nc2ccccc2[nH]1)NNC(=S)Nc1ccc(Cl)cc1", "T/C": "88 % of control"}
{"COMPOUND": "Cc1ccc(-n2cnc3sc4c(c3c2=O)CCCC4)cc1", "T/C": "100 % of control"}
{"COMPOUND": "CCc1ncc(C(C)(O)c2ccc(C)cc2)n1Cc1ccccc1 (configuration not stated)", "T/C": "90 % of control"}
{"COMPOUND": "CCn1c(=NC(=O)c2ccccc2O)ccn1C", "T/C": "95 % of control"}
{"COMPOUND": "O=C(NCCCCCCNC(=O)C1CCCN1C(=O)OCc1ccccc1)C1CCCN1C(=O)OCc1ccccc1 (configuration not stated)", "T/C": "100 % of control"}
{"COMPOUND": "O=C(NCC1CC1)NC(=O)c1c(F)cccc1Cl", "T/C": "102 % of control"}
{"COMPOUND": "CCCCN(CCCC)C(=S)S", "T/C": "88 % of control"}

---

system: P388 leukemia ip, CD2F1 mice, survival T/C; assay: NCI In Vivo Anticancer Drug Screen. Data for tumor model P388 Leukemia (intraperitoneal) in CD2F1 (CDF1) mice; settings: endpoint: median survival time; dose: 100.0 mg/kg/injection; schedule: Q01DX009 (ip); vehicle: saline with Tween-80; higher = longer survival
Toxic doses and inconclusive results are not listed.
Recorded T/C for the following compounds

{"COMPOUND": "Cc1cc(Nc2nnc(-c3cccnc3Oc3ccccc3)s2)ccc1Br", "T/C": "94 % of control"}
{"COMPOUND": "CCOC(=O)c1ccc(NC(Cc2ccccc2)=NC(C)(C)C)cc1", "T/C": "94 % of control"}
{"COMPOUND": "CC(C)c1ccc(C(=O)O)cc1", "T/C": "103 % of control"}
{"COMPOUND": "CC(C)OC(=S)SCC(=O)c1ccc(Br)cc1", "T/C": "107 % of control"}
{"COMPOUND": "Cc1ccc(NC(=O)C(F)(F)F)cc1", "T/C": "108 % of control"}
{"COMPOUND": "C(=Nc1cnc2ccccc2c1)c1ccnc2ccccc12", "T/C": "96 % of control"}
{"COMPOUND": "COc1ccc(C(=S)NC(O)C(=O)c2ccc(Cl)cc2)cc1OC (configuration not stated)", "T/C": "103 % of control"}
{"COMPOUND": "O=C(c1ccccc1)N1c2ccccc2N(C(=O)c2ccccc2)C1c1nc2ccccc2n1C(=O)c1ccccc1", "T/C": "100 % of control"}
{"COMPOUND": "Nc1ncnc2c1ncn2C1OC(CO)C2OC(=S)OC21 (configuration not stated)", "T/C": "100 % of control"}
{"COMPOUND": "OC1c2ccccc2OC2(N3CCCC3)CCCCC12 (configuration not stated)", "T/C": "94 % of control"}
{"COMPOUND": "O=C1CCN(Cc2ccccc2)C(=O)N1", "T/C": "105 % of control"}
{"COMPOUND": "CCOc1ccc(NC(=O)CC(C)O)cc1 (configuration not stated)", "T/C": "93 % of control"}
